# measured_target: recombinant human MAO-A (Homo sapiens, UniProt P21397)
# Sequence (P21397 whole entry): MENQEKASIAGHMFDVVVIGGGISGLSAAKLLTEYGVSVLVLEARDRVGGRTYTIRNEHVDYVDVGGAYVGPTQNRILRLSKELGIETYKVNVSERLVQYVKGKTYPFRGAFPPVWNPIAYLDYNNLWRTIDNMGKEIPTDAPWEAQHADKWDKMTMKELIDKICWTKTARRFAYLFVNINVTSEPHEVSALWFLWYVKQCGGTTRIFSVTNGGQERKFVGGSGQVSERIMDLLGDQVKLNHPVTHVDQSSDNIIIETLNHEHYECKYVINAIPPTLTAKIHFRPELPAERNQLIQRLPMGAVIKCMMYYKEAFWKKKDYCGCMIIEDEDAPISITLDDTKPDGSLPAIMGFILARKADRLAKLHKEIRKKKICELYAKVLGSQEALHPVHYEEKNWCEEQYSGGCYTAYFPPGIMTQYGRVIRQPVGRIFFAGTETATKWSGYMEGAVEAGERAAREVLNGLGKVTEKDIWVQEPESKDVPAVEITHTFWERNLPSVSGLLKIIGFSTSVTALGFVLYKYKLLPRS
# experimental_details: hMAO-A inhibition, spectrophotometric assay
# Format: biochemical
# test_parameters: single dose concentration of 10 µM
A collection of molecules and their measured inhibition at 10 µM
Form entry: value (%) — number only.

| smiles_structure | measured_target | value_units | observed |
| --- | --- | --- | --- |
| COc1ccc(OC)c(/C=C2\Oc3cc(O)ccc3C2=O)c1 | recombinant human MAO-A (Homo sapiens, UniProt P21397) | % | -0.29 |
| COc1ccc2c(c1)O/C(=C\c1ccc(O)cc1)C2=O | recombinant human MAO-A (Homo sapiens, UniProt P21397) | % | 8.54 |
| O=C1/C(=C/c2cccc(O)c2O)Oc2cc(O)ccc21 | recombinant human MAO-A (Homo sapiens, UniProt P21397) | % | 46.2 |
| COc1cccc(/C=C2\Oc3cc(O)ccc3C2=O)c1OC | recombinant human MAO-A (Homo sapiens, UniProt P21397) | % | -2.21 |
| COc1ccc2c(c1)O/C(=C\c1ccc(O)c(O)c1)C2=O | recombinant human MAO-A (Homo sapiens, UniProt P21397) | % | 60.8 |
| O=C1/C(=C/c2ccccc2O)Oc2cc(O)ccc21 | recombinant human MAO-A (Homo sapiens, UniProt P21397) | % | 9.02 |

For the molecule shown here, COc1ccc2c(c1)O/C(=C\c1cccc(O)c1O)C2=O , give the reported inhibition at 10 µM.
52.8

Another: O=C1/C(=C/c2ccc(O)cc2O)Oc2cc(O)ccc21
44.1
